Test: HIF pathway activators in reporter cells, dose response, cell-based, U2OS HRE-luciferase, luminescence, dry powder, set 3 (AID 493180)
Conditions: U2OS HRE-luciferase reporter, luminescence, HIF pathway activation; at 38 µM (top of the series)
quantity: activation (%)
The answer is to be given in %; state only the numeric part.

Solved cases (4 shown):
>>> print(df.to_string())
                                   compound  readout_value
0        CN1CCN(C(=O)c2cc(-c3ccccc3)on2)CC1         -0.645
1       Cc1ccc(NC(=O)c2cc(-c3ccccc3)on2)cn1           1.37
2  O=C(c1cc(-c2ccccc2)on1)N1CCC(N2CCCC2)CC1          0.044
3  O=C(Nc1ncc(-c2ccccc2)o1)c1cc(-c2ccccc2)on1         -0.837

Now consider a different compound.
Exam item: What value of measured activation is listed for O=C(Nc1cnc2ccccc2c1)c1cc(-c2ccccc2)on1 ?
Marked response: 0.049
